Source listed as patent US20240108738A1.

Target: UniProtKB O76036
Numbered stars: 1 amine (or outer) side, 2 acyl side, 3 side chain; on linkers, the order of the positions; unused ones are H or OH. Bridge positions count the residues as written; N and C are the ends. Square brackets hold non-standard residues; d marks the D form. Peptide text beside a SMILES is read from it. TATA = O=C(CC[*:1])N1CN(C(=O)CC[*:2])CN(C(=O)CC[*:3])C1; Cba = N[C@@H](CC1CCC1)C(=O)O; dNva = CCC[C@@H](N)C(=O)O; Dap = NC[C@H](N)C(=O)O

{"columns": ["molecule", "test.target", "unit.symbol", "Kd"],
 "data": [
  ["CSCC[C@@H]1NC(=O)[C@@H]2CSCCC(=O)N3CN(CN(C3)C(=O)CCSC[C@H](N)C(=O)N[C@@H](CC(N)=O)C(=O)N[C@@H](CC(C)C)C(=O)N[C@@H](CCC(N)=O)C(=O)N[C@@H](C)C(=O)N3CCC[C@H]3C(=O)N2)C(=O)CCSC[C@@H](C(N)=O)NC(=O)[C@H](C(C)C)NC(=O)[C@H](CCCCN)NC(=O)CNC(=O)[C@H]([C@@H](C)O)NC(=O)[C@H](CC(C)C)NC1=O [BCY18295, (SEQ ID NO: 4)] (H-CNLQAPCMLTGKVC-NH2; linker 1-7-14 via TATA; C-terminus assumed)", "UniProtKB O76036", "µM", 6.41],
  ["CSCC[C@@H]1NC(=O)[C@@H]2CSCCC(=O)N3CN(CN(C3)C(=O)CCSC[C@H](NC(=O)[C@@H](N)CN)C(=O)N[C@@H](CC(N)=O)C(=O)N[C@@H](CC(C)C)C(=O)N[C@@H](CCC(N)=O)C(=O)N[C@@H](C)C(=O)N3CCC[C@H]3C(=O)N2)C(=O)CCSC[C@@H](C(=O)N[C@@H](C)C(N)=O)NC(=O)[C@H](C(C)C)NC(=O)[C@H](CCCCN)NC(=O)CNC(=O)[C@H]([C@@H](C)O)NC(=O)[C@H](CC(C)C)NC1=O [BCY19697, Dap-(SEQ ID NO: 4)-A] (H-[Dap]CNLQAPCMLTGKVCA-NH2; linker 2-8-15 via TATA)", "UniProtKB O76036", "µM", 3.73],
  ["CCC[C@H]1NC(=O)[C@@H]2CSCCC(=O)N3CN(CN(C3)C(=O)CCSC[C@H](NC(C)=O)C(=O)N[C@@H](Cc3ccc(O)cc3)C(=O)N[C@@H](CC3CCC3)C(=O)N3CCC[C@H]3C(=O)N[C@@H](CC(=O)O)C(=O)N[C@@H](Cc3ccc(O)cc3)C(=O)N[C@@H](CC(C)C)C(=O)N2)C(=O)CCSC[C@@H](C(N)=O)NC(=O)[C@H](Cc2ccc(O)cc2)NC(=O)[C@H](CCC(=O)O)NC(=O)[C@H](CC(=O)O)NC1=O [BCY18444, Ac-(SEQ ID NO: 145)] (Ac-CY[Cba]PDYLC[dNva]DEYC-NH2; linker 1-8-13 via TATA)", "UniProtKB O76036", "µM", 0.0039]
]}

----------
Molecular target: Fc-tagged human NKp46 (Homo sapiens, UniProt O76036)
Construct: purchased ACROBiosystems NC1-H5257
Sequence (O76036 22-304): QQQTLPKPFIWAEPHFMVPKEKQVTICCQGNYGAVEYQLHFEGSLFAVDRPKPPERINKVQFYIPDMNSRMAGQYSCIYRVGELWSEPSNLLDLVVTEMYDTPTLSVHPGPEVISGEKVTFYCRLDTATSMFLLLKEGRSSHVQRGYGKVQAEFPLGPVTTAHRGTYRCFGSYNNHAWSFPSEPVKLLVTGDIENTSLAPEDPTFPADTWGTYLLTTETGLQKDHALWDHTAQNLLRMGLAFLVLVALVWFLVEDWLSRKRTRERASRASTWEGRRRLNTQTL
Assay: NKp46 SPR assay (Method 1 and/or Method 2)
Type: binding
Settings: SPR Method 1 and/or Method 2, Table 3B
pKd: −log10 of the molar value. Numbered stars: 1 amine (or outer) side, 2 acyl side, 3 side chain; on linkers, the order of the positions; unused ones are H or OH. Bridge positions count the residues as written; N and C are the ends. Square brackets hold non-standard residues; d marks the D form. Peptide text beside a SMILES is read from it. TATA = O=C(CC[*:1])N1CN(C(=O)CC[*:2])CN(C(=O)CC[*:3])C1; Cba = N[C@@H](CC1CCC1)C(=O)O; Pen = CC(C)(S)[C@H](N)C(=O)O

{"columns": ["compound", "bound.sign", "pKd"],
 "data": [
  ["CSCC[C@@H]1NC(=O)[C@@H]2CSCCC(=O)N3CN(CN(C3)C(=O)CCSC[C@@H](C(=O)N[C@@H](C)C(N)=O)NC(=O)[C@H](C(C)C)NC(=O)[C@H](CCCCN)NC(=O)[C@H](C)NC(=O)[C@H]([C@@H](C)O)NC(=O)[C@H](CC(C)C)NC1=O)C(=O)CCSC[C@H](NC(=O)[C@H](C)N)C(=O)N[C@@H](CC(N)=O)C(=O)N[C@@H](CC(C)C)C(=O)N[C@@H](CCC(N)=O)C(=O)N[C@@H](C)C(=O)N1CCC[C@H]1C(=O)N2 [BCY18303, A-(SEQ ID NO: 67)-A] (H-ACNLQAPCMLTAKVCA-NH2; linker 2-8-15 via TATA)", "=", 5.56],
  ["CSCC[C@@H]1NC(=O)[C@@H]2CSCCC(=O)N3CN(CN(C3)C(=O)CCSC[C@@H](C(=O)N[C@@H](C)C(N)=O)NC(=O)[C@H](C(C)C)NC(=O)[C@H](CCCCN)NC(=O)CNC(=O)[C@H]([C@@H](C)O)NC(=O)[C@H](Cc3ccc(O)cc3)NC1=O)C(=O)CCSC[C@H](NC(=O)[C@H](C)N)C(=O)N[C@@H](CC(N)=O)C(=O)N[C@@H](CC(C)C)C(=O)N[C@@H](CCC(N)=O)C(=O)N[C@@H](C)C(=O)N1CCC[C@H]1C(=O)N2 [BCY18318, A-(SEQ ID NO: 80)-A] (H-ACNLQAPCMYTGKVCA-NH2; linker 2-8-15 via TATA)", "=", 5.72],
  ["CSCC[C@@H]1NC(=O)[C@@H]2CSCCC(=O)N3CN(CN(C3)C(=O)CCSC[C@@H](C(=O)N[C@@H](C)C(N)=O)NC(=O)[C@H](C(C)C)NC(=O)[C@H](CCCCN)NC(=O)CNC(=O)[C@H]([C@@H](C)O)NC(=O)[C@H](CCC(N)=O)NC1=O)C(=O)CCSC[C@H](NC(=O)[C@H](C)N)C(=O)N[C@@H](CC(N)=O)C(=O)N[C@@H](CC(C)C)C(=O)N[C@@H](CCC(N)=O)C(=O)N[C@@H](C)C(=O)N1CCC[C@H]1C(=O)N2 [BCY15098, A-(SEQ ID NO: 3)-A]", "=", 5.97],
  ["CC(=O)N[C@H]1CSCCC(=O)N2CN3CN(C2)C(=O)CCSC(C)(C)[C@@H](C(N)=O)NC(=O)[C@H](Cc2ccc(O)cc2)NC(=O)[C@H](CCC(=O)O)NC(=O)[C@H](CC(=O)O)NC(=O)[C@@H](C)NC(=O)[C@H](CSCCC3=O)NC(=O)[C@H](CC(C)C)NC(=O)[C@H](Cc2ccc(O)cc2)NC(=O)[C@H](CC(=O)O)NC(=O)[C@@H]2CCCN2C(=O)[C@H](CC2CCC2)NC(=O)[C@H](Cc2ccc(O)cc2)NC1=O [BCY19691, Ac-(SEQ ID NO: 155)] (Ac-CY[Cba]PDYLC[dA]DEY[Pen]-NH2; linker 1-8-13 via TATA)", "<", 6.30]
]}

----------
Molecular target: Fc-tagged human NKp46 (Homo sapiens)
result.type: Kd

{"columns": ["compound", "readout.value"],
 "data": [
  ["CC[C@H](C)[C@@H]1NC(=O)CNC(=O)[C@H](Cc2cn(C)c3ccccc23)NC(=O)[C@H](CCC(N)=O)NC(=O)[C@@H]2CSCCC(=O)N3CN(CN(C3)C(=O)CCSC[C@@H](C(=O)N[C@@H](C)C(N)=O)NC1=O)C(=O)CCSC[C@H](NC(=O)[C@H](C)N)C(=O)N[C@@H](CC(=O)O)C(=O)N[C@@H](CC(C)C)C(=O)N[C@@H]([C@@H](C)O)C(=O)N[C@@H]([C@@H](C)O)C(=O)N[C@@H](Cc1c[nH]cn1)C(=O)N[C@@H](CC(N)=O)C(=O)N2 [BCY18288, A-(SEQ ID NO: 131)-A]", "354 nM"]
]}

----------
Biological target: Fc-tagged human NKp46 (Homo sapiens)
Numbered stars: 1 amine (or outer) side, 2 acyl side, 3 side chain; on linkers, the order of the positions; unused ones are H or OH. Bridge positions count the residues as written; N and C are the ends. Peptide text beside a SMILES is read from it. TATA = O=C(CC[*:1])N1CN(C(=O)CC[*:2])CN(C(=O)CC[*:3])C1
result.type: Kd (µM)

{"columns": ["molecule", "unit.symbol", "readout.value"],
 "data": [
  ["CSCC[C@@H]1NC(=O)[C@@H]2CSCCC(=O)N3CN(CN(C3)C(=O)CCSC[C@@H](C(=O)N[C@@H](C)C(N)=O)NC(=O)[C@H](C(C)C)NC(=O)[C@H](CCCCN)NC(=O)CNC(=O)[C@H](C)NC(=O)[C@H](CC(C)C)NC1=O)C(=O)CCSC[C@H](NC(=O)[C@H](C)N)C(=O)N[C@@H](CC(N)=O)C(=O)N[C@@H](CC(C)C)C(=O)N[C@@H](CCC(N)=O)C(=O)N[C@@H](C)C(=O)N1CCC[C@H]1C(=O)N2 [BCY18302, A-(SEQ ID NO: 66)-A] (H-ACNLQAPCMLAGKVCA-NH2; linker 2-8-15 via TATA; N-terminus assumed)", "µM", 5.38]
]}
